- Test system: Rabbit Psoas myofibrils (skeletal myosin ATPase)
- assay-name: Myofibril ATPase assay, rabbit psoas (skeletal) myofibrils
- Format: biochemical
- condition-info: rabbit psoas myofibrils; Y75 value
- Description: Example 1. Myofibril ATPase Assay Myofibril ATPase assays are known in the art to be useful in evaluating small molecules for the treatment of HCM and other cardiac indications. Myosin ATPase activity is assessed by using a coupled reaction system, in which ADP generated by the myosin ATPase function is coupled to the disappearance of NADH through the pyruvate kinase/lactate dehydrogenase (PK-LDH) system. […]
property-label: Skeletal EC25 (µM)

compound="Cc1nccc2[nH]c(=O)c(CC(=O)N[C@H](C)c3ncccc3F)c(C)c12 (single isomer, unassigned)" experimental_value=100.00

[1] Cc1nccc2[nH]c(=O)c([C@H](C)C(=O)N[C@@H](C)c3ccc(F)cc3F)cc12 (single isomer, unassigned)
[2] Cc1c(CC(=O)N[C@@H]2COc3cc(F)cc(F)c32)c(=O)[nH]c2ccnc(C#N)c12 (single isomer, unassigned)
[3] Cc1c(CC(=O)N[C@H](CO)c2ccc(C#N)cc2F)c(=O)[nH]c2ccnc(C(F)(F)F)c12 (single isomer, unassigned)
[4] Cc1c(CC(=O)N[C@@H](CO)c2ncc(F)cc2F)c(=O)[nH]c2ccnc(C(F)(F)F)c12
[5] Cc1c(CC(=O)N[C@@H](C)c2ccc(F)cc2F)c(=O)[nH]c2ccnc(OC3CC3)c12
Req: In this exercise, place the 5 compounds in ascending sequence of their recorded Skeletal EC25. Note for the reader: the ranking is given by listing the labels in the order requested.
Resp: 5, 3, 4, 2, 1
(5: 0.03 µM, 3: 0.36 µM, 4: 0.57 µM, 2: 0.97 µM, 1: 12.41 µM)
